System: Si-Ha
protocol.notes: ACTREC in vitro cytotoxicity, Si-Ha
Format: cell-based
condition.description: Cervix Si-Ha (Table 4)
property.label: GI50 (nM)
Expressed in nM, but write only the number.

Known GI50 results, listed for orientation:
COc1cc2c(cc1OCCCCn1c3ccccc3c3ccccc31)N=C[C@@H]1CCCN1C2=O	1700
COc1cc2c(cc1OCCCN1CCN(CCCCn3c4ccccc4c4ccccc43)CC1)N=C[C@@H]1CCCN1C2=O [Compound 14b]	130

GI50 lookup needed for COc1cc2c(cc1OCCCCN1CCN(CCCCn3c4ccccc4c4ccccc43)CC1)N=C[C@@H]1CCCN1C2=O [Compound 14d] , thanks.
170

Try this molecule next: COc1ccc(-c2ccc3c(c2)c2cc(-c4ccc(OC)cc4)ccc2n3CCCCOc2cc3c(cc2OC)C(=O)N2CCC[C@H]2C=N3)cc1 [Compound 10e]
170

Next entry: `COc1cc2c(cc1OCCCn1c3ccccc3c3ccccc31)N=C[C@@H]1CCCN1C2=O`
1700

Also check `COc1cc2c(cc1OCCCCCCn1c3ccccc3c3ccccc31)N=C[C@@H]1CCCN1C2=O`
1580

Input COc1ccc(-c2ccc3c(c2)c2cc(-c4ccc(OC)cc4)ccc2n3CCCOc2cc3c(cc2OC)C(=O)N2CCC[C@H]2C=N3)cc1 [Compound 10d]
170
